Biological target: tyrosinase (Agaricus bisporus)
Sequence (C7FF04 1-392): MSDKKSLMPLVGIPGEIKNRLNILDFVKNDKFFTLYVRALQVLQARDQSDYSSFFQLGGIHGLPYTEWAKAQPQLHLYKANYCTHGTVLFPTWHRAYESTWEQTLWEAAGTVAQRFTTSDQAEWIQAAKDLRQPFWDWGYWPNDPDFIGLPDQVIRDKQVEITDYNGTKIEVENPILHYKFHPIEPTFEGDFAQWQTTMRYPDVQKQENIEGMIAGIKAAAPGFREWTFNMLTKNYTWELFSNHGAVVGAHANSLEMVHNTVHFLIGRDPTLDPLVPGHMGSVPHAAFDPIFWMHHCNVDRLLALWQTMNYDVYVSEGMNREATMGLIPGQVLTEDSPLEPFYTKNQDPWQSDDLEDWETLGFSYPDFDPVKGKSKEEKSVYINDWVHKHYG
Assay: Tyrosinase inhibitory assay (L-tyrosine substrate)
Settings: read-out: tyrosinase inhibitory activity 100 μM (%)
parameter: inhibition at 100 µM

Consider the reported inhibition at 100 µM for these compounds:
1) CC1=C2CCC(C)C23CCC(C3)C1(C)CO (centres unmarked) :: < 30%
2) COc1ccc(CCc2cc(=O)c3c(o2)C(Cl)C(O)C(O)C3O)cc1 (centres unmarked) :: < 30%
3) O=c1cc(CCc2ccccc2)oc2c1C(O)C(O)C(O)C2Cl (centres unmarked) :: 34.8%
4) C=C1C2CCC3(C(CO)CCC3C1(C)C)C2O (centres unmarked) :: < 30%

# lookup: inhibition at 100 µM of CC1CCC2C(C)(C)C(CO)C3CCC12C3 (centres unmarked)
< 30%
